assayed system: BACE1 enzyme (Homo sapiens, UniProt P56817)
Sequence (P56817 46-501): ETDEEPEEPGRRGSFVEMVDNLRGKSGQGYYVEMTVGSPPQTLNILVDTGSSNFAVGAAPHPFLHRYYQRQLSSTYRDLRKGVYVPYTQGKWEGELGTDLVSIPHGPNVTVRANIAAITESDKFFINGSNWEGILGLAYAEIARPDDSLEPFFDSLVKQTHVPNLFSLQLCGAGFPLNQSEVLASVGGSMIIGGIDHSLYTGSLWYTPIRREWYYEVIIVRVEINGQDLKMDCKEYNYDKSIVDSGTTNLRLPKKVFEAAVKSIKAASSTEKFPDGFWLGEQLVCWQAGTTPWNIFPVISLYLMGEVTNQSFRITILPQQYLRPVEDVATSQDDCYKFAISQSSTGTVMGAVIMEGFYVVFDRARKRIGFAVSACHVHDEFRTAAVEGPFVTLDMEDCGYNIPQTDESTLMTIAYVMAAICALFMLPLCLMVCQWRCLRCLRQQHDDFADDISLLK
method description: BACE1 enzyme inhibition, Ki from kinetic data under tight-binding conditions
Assay type: biochemical
protocol conditions: Ki (nM) BACE1, Table 1, new inhibitors 2f-j
endpoint name: Ki (nM)

[
  {
    "compound": "CCC[C@H](O)[C@H](NC[C@@H](O)[C@H](Cc1ccccc1)NC(=O)c1cccc(C(=O)N(C)Cc2nc(C)cs2)c1)C(=O)NCC(C)C [inhibitor 2i]",
    "measured result": 33.1
  },
  {
    "compound": "Cc1cc(C(=O)N[C@@H](Cc2ccccc2)[C@H](O)CN[C@H](C(=O)NCC(C)C)[C@H](C)O)cc(C(=O)N(C)Cc2nc(C)cs2)c1 [inhibitor 2h]",
    "measured result": 176
  },
  {
    "compound": "CCC[C@H](O)[C@H](NC[C@@H](O)[C@H](Cc1ccccc1)NC(=O)c1cc(C)cc(C(=O)N2CCC[C@@H]2COC)c1)C(=O)NCC(C)C [inhibitor 2g]",
    "measured result": 6.6
  },
  {
    "compound": "CCC[C@H](O)[C@H](NC[C@@H](O)[C@H](Cc1ccccc1)NC(=O)c1cc(C)cc(C(=O)N(C)Cc2nc(C)cs2)c1)C(=O)NCC(C)C [inhibitor 2j]",
    "measured result": 34.2
  },
  {
    "compound": "COC[C@H]1CCCN1C(=O)c1cccc(C(=O)N[C@@H](Cc2ccccc2)[C@H](O)CN[C@H](C(=O)NCC(C)C)[C@H](C)O)c1 [inhibitor 2f]",
    "measured result": 3020
  }
]

Just for reference, paper PMC6637425 is where these values come from.
